Listed here are binders together with their documented response.
Molecular target: T1, CCL22 labeled with Alexa Fluor 647, O00626
T1 chain: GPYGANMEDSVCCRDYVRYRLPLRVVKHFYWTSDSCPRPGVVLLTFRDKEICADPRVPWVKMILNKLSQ
Assay: flow cytometry on cells
Settings: chain shown with the change;; parent: est. 47; read off a plot

binder	response
HA-ACKR2 (epitope-tagged human ACKR2, wild type), O00590 YYYDY to FFYDF (first, second and fourth tyrosines of the motif to F) (protein) MAATASPQPLATEDADSENSSFFFYDFLDEVAFMLCRKDAVVSFGKVFLPVFYSLIFVLGLSGNLLLLMVLLRYVPRRRMVEIYLLNLAISNLLFLVTLPFWGISVAWHWVFGSFLCKMVSTLYTINFYSGIFFISCMSLDKYLEIVHAQPYHRLRTRAKSLLLATIVWAVSLAVSIPDMVFVQTHENPKGVWNCHADFGGHGTIWKLFLRFQQNLLGFLLPLLAMIFFYSRIGCVLVRLRPAGQGRALKIAAALVVAFFVLWFPYNLTLFLHTLLDLQVFGNCEVSQHLDYALQVTESIAFLHCCFSPILYAFSSHRFRQYLKAFLAAVLGWHLAPGTAQASLSSCSESSILTAQEEMTGMNDLGERQSENYPNKEDVGNKSA	18 MFI

Task: Quick check: response of HA-ACKR2 (epitope-tagged human ACKR2, wild type), O00590 YYYDY to FYFDF (first, third and fourth tyrosines of the motif to F) (protein) MAATASPQPLATEDADSENSSFFYFDFLDEVAFMLCRKDAVVSFGKVFLPVFYSLIFVLGLSGNLLLLMVLLRYVPRRRMVEIYLLNLAISNLLFLVTLPFWGISVAWHWVFGSFLCKMVSTLYTINFYSGIFFISCMSLDKYLEIVHAQPYHRLRTRAKSLLLATIVWAVSLAVSIPDMVFVQTHENPKGVWNCHADFGGHGTIWKLFLRFQQNLLGFLLPLLAMIFFYSRIGCVLVRLRPAGQGRALKIAAALVVAFFVLWFPYNLTLFLHTLLDLQVFGNCEVSQHLDYALQVTESIAFLHCCFSPILYAFSSHRFRQYLKAFLAAVLGWHLAPGTAQASLSSCSESSILTAQEEMTGMNDLGERQSENYPNKEDVGNKSA ?
Output: 19 MFI
